B1: Osa-1-4 twister ribozyme (parent)
chain: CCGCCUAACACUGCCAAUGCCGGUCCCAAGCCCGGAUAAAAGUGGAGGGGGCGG

# Variants of: B1
# protocol summary: self-cleavage, relative activity (ratio to wild type); higher = more cleavage; co-transcriptional
Task for the reader: assign each of the following variants its reported self-cleavage.
I only need the number, thanks.

Req: Quick one: self-cleavage for G22U G23A ?
Resp: 0.08

Req: Quick one: A40U G51C
Resp: 0.06

Req: And for A28U G50A ?
Resp: 0.42

Req: Field entry: C32U G42A
Resp: 0.08

Req: Record: G49C G50C
Resp: 0.17

Req: Entry to check: C27A C52G
Resp: 0.25

Req: How about C25U U37C ?
Resp: 0.95

Req: Quick one: C14A G30A
Resp: 0.02

Req: Also A39G C32A ?
Resp: 0.08

Req: Let us now turn to A17C C15A
Resp: 0.7

Req: Entry A7G C9A please
Resp: 0.11

Req: And what about the variant A28G C25G ?
Resp: 0.09

Req: Try G48A G49U next.
Resp: 0.04

Req: One more variant: A40G C33U
Resp: 0.15

Req: Repeat for the following variant: A36U C9A
Resp: 0.47

Req: Would you mind doing G13C G34U as well?
Resp: 0.03

Req: For A10G A8C then?
Resp: 0.13

Req: Another variant to look at: C9U G48C
Resp: 0.04

Req: Entry to check: A29G G30A
Resp: 0.05

Req: What do you get for C14A C33A ?
Resp: 0.03

Req: Subsequent entry: C31U G30A
Resp: 0.03

Req: Field entry: C20G G45C
Resp: 0.03

Req: Repeat with A29U A41C
Resp: 0.13

Req: Try A8C C20G next.
Resp: 0.03

Req: Please give the result for A39G U24C too.
Resp: 0.14

Req: Now try C21G G47A .
Resp: 0.03

Req: # repeat for G23U G44A
Resp: 0.04

Req: Again, but for A17C A40C
Resp: 0.06

Req: Can you check A36C G19U next?
Resp: 0.82

Req: Now give it for C25U G54A too.
Resp: 0.34

Req: Same thing, different variant: A41C G34U
Resp: 0.73
